test system: T-47D breast; assay: NCI-60 one-dose screen, 48 h (100 = growth as untreated, 0 = no growth, -100 = all killed); conditions: 10 µM unless noted
About 83,000 compounds went through this panel and 20% of them were active in at least one assay; those are over-represented in the sample as a whole.

MOLECULE	TARGET ENTITY	UNIT DESCRIPTOR	growth
COC(=O)c1[nH]nc2c1C1(C(=O)N(C)c3ccccc31)C(C#N)=C(N)O2 (stereo not given)	T-47D breast	%	108
NC(N)=Nc1ccc(Oc2cccc(NC(N)=Nc3ccc(I)cc3F)c2)cn1	T-47D breast	%	26.1
O=C1[C@H]2Cc3c([nH]c4ccccc34)[C@@H](c3ccc(Cl)cc3)N2C(=O)CN1C1CCN(Cc2ccccc2)CC1	T-47D breast	%	55.9
O=C(CN1CCN(c2cc(=O)[nH]c3ccc(F)cc23)CC1)Nc1ccc(Cl)cc1	T-47D breast	%	66.3
COc1c(N2CC3CCCNC3C2)c(F)cc2c(=O)c(C(=O)N/N=C/c3ccccc3)cn(C3CC3)c12 (stereo not given)	T-47D breast	%	101
